Overview of recorded growth inhibition for various compounds
Test: NCI Yeast Anticancer Drug Screen. Data for the mec2-1 strain (AID 157)
Assay setup: S. cerevisiae mec2-1 strain, at 50.0 µM, active compounds read high
The panel holds about 79,000 compounds, 15% with a hit somewhere; the sample as a whole holds those more often.
Kindly answer with a numeric value in %, unit omitted.

>>> df
                                   compound  output_unit  observed_measurement
0                     COc1ccc(/C=C/NC=O)cc1            %                  0.35
1               Oc1c(Cl)c(Cl)c(Cl)c2ccccc12            %                  96.8
2  CC(C)OP(=O)(OC(C)C)C(=Nc1ccccc1)NNc1ccc([N+](=O)[O-])cc1            %                  16.6
3  c1ccc(-c2cnc(-c3ccc(-c4ncc(-c5ccccc5)o4)cc3)o2)cc1            %                 -27.4
4  O=C(c1ccco1)N(C(=S)N1CCN(c2ccccn2)CC1)C1CCCCC1            %                  86.7
5  CC(C)c1ccc(C=Nc2ccc(SSc3ccc(N=Cc4ccc(C(C)C)cc4)cc3)cc2)cc1            %                  49.4

Ask | Given COc1ccc(/C=C2\CCCC(CN(C)C)C2=O)cc1 (configuration not stated) , state its recorded growth inhibition.
Reply | 78.8

Ask | Proceed to COc1cc(C2C(C#N)=C(C)Nc3nc(N)nc(N)c32)cc(OC)c1OC (configuration not stated)
Reply | 3.75

Ask | Now give it for CCN(C(=O)C(Cl)Cl)C(Cc1ccccc1)c1ccccc1 (configuration not stated) too.
Reply | 96.3

Ask | Check CCOC(=O)C1=C(C(=O)c2ccc(C)cc2)C(c2cccc([N+](=O)[O-])c2)C(C(=O)c2ccc(C)cc2)=C(C(=O)OCC)N1 too.
Reply | 78

Ask | Can you check Cc1cc(NCCCCCCCNc2cc(C)nc3cc([N+](=O)[O-])ccc23)c2ccc([N+](=O)[O-])cc2n1 next?
Reply | 77

Ask | Same question, c1ccc(-c2conc2-c2ccccc2)cc1 this time
Reply | 19.1

Ask | Same question, O=C(NNC(=O)c1ccccc1O)c1ccccc1O this time
Reply | 37.3

Ask | And then S=c1nc[nH]c2[nH]ccc12 , what is it?
Reply | 0.6

Ask | Continue with CCc1cc2c(cc1C(C)=O)C(C)(C)CCC2
Reply | 98.7

* * *

In this section, each of the compounds is paired with its reported growth inhibition.
Test: NCI Yeast Anticancer Drug Screen. Data for the mec2-1 strain (AID 157)
Assay setup: S. cerevisiae mec2-1 strain, at 5.0 µM (retest, dose inferred, filed as 0.5), active compounds read high
The panel holds about 79,000 compounds, 15% with a hit somewhere; the sample as a whole holds those more often.
Entry rule: numbers only, all in %.

Record excerpt, results attached:
>>> df
                                   compound  observed_measurement
0  COc1cccc2c1C(=O)c1c(O)c3c(c(O)c1C2=O)C[C@@](O)(C(C)=O)C[C@@H]3OC1CC(N)C(O)C(C)O1 (stereo partly specified)                   -11
1            C=CCOC(=O)c1ccc(C(=O)OCC=C)cc1                   -11
2                     O=C(O)CSCc1ccc(Cl)cc1                     2
3               CSc1ccc(N2C(=O)CSC2=S)cc1Cl                    27
4                CCOC(CN=c1nc(N(C)C)ss1)OCC                    -9

Now look at this entry.
Ask | // query growth inhibition value for entry O=C(CCC(=O)OCCOc1ccccc1)OCCOc1ccccc1
Reply | -16
